# System: LoVo
# measurement.notes: Dose to inhibit cell growth determined against LoVo cell line of human adenocarcinoma
# Assay type: functional, cell-based

{"columns": ["molecule", "assay.system", "IC50, µM"],
 "data": [
  ["O=C(NCCCl)Nc1ccc(I)cc1", "LoVo", 5.4],
  ["Cc1cccc(NC(=O)NCCCl)c1", "LoVo", 60],
  ["Cc1ccc(NC(=O)NCCCl)cc1C", "LoVo", 3.5],
  ["CCc1ccc(NC(=O)NCCCl)cc1", "LoVo", 3.2],
  ["Cc1ccc(NC(=O)NCCCl)cc1", "LoVo", 20],
  ["O=C(NCCCl)Nc1cccc2ccccc12", "LoVo", 150],
  ["CCCCc1ccc(NC(=O)NCCCl)cc1", "LoVo", 10],
  ["Cc1cc(C)cc(NC(=O)NCCCl)c1", "LoVo", 8.8],
  ["CCCCCCc1ccc(NC(=O)NCCCl)cc1", "LoVo", 6.1],
  ["O=C(O)CCCc1ccc(N(CCCl)CCCl)cc1", "LoVo", 9],
  ["CCCc1ccc(NC(=O)NCCCl)cc1", "LoVo", 10],
  ["CC(C)c1ccc(NC(=O)NCCCl)cc1", "LoVo", 1],
  ["O=C(NCCCl)Nc1ccc2ccccc2c1", "LoVo", 6.2],
  ["CCCCCCCCc1ccc(NC(=O)NCCCl)cc1", "LoVo", 29],
  ["CCC(C)c1ccc(NC(=O)NCCCl)cc1 (stereo unspecified)", "LoVo", 2.2],
  ["O=C(NCCCl)Nc1ccc(C2CCCCC2)cc1", "LoVo", 22]
]}
